Data origin: the supplement of paper PMC11383364

Examples of molecules with documented percent difference in area under dose-response curve follow.
- System: SUM149
- Procedure text: percent difference in area under dose-response curve of relative cell number, RPMI vs HPLM; higher = drug relatively more effective in HPLM than RPMI (negative = less effective in HPLM)
- Condition label: treatment time: 72 h; dose range: 10-point, 1 nM to 20 µM; media compared: RPMI vs HPLM
API: value field is a number in %; no unit string.

See these solved cases before continuing.
{"Molecule": "Cn1c(=O)c(F)c(Nc2ccc(I)cc2F)c2c(=O)n(C[C@@H](O)CO)cnc21", "Value": -12.9}
{"Molecule": "C[C@H](NC(=O)Cc1cc(F)cc(F)c1)C(=O)N[C@@H]1C(=O)N(C)c2ccccc2-c2ccccc21", "Value": 8.45}
{"Molecule": "C=CC(=O)N1CCC[C@@H](n2nc(-c3ccc(Oc4ccccc4)cc3)c3c(N)ncnc32)C1", "Value": 7.26}
{"Molecule": "CNCCC(Oc1ccc(C(F)(F)F)cc1)c1ccccc1 (stereo not drawn)", "Value": 0.518}

## Input Which measured percent difference in area under dose-response curve value corresponds to `CC(C)c1cc(-c2n[nH]c(=O)n2-c2ccc3c(ccn3C)c2)c(O)cc1O` ?
## Output -31.8

## Input Next entry: `COC(=O)Nc1nc2cc(C(=O)c3cccs3)ccc2[nH]1`
## Output -17.2

## Input What would you report for `COc1c(C)c2c(c(O)c1C/C=C(\C)CCC(=O)OCCN1CCOCC1)C(=O)OC2` ?
## Output -4.5

## Input Further, for `CCNC(=O)c1noc(-c2cc(Cl)c(O)cc2O)c1-c1ccc(OC)cc1` ?
## Output -12.2

## Input Input `CC1(COc2ccc3c(c2)ncn3-c2ccc3cccc(N4CCC(N)CC4)c3n2)COC1`
## Output -11.6

## Input Cool, now Clc1ccc(Nc2nnc(Cc3ccncc3)c3ccccc23)cc1 [Vatalanib_2HCl]
## Output -4.56

====

Entries and their percent difference in area under dose-response curve values follow.
- System: SUM149
- Procedure text: percent difference in area under dose-response curve of relative cell number, RPMI vs HPLM; higher = drug relatively more effective in HPLM than RPMI (negative = less effective in HPLM)
- Condition label: treatment time: 72 h; dose range: 10-point, 1 nM to 20 µM; media compared: RPMI vs HPLM

Here are 3 compounds together with their reported answers.
{"Compound": "CN1CCN(c2cccc(Nc3nc4c(-c5ccc(S(C)(=O)=O)cc5)cccn4n3)c2)CC1", "Value": "-13.7%"}
{"Compound": "Cc1ccc(NC(=O)c2ccc(CN3CCN(C)CC3)cc2)cc1Nc1nccc(-c2cccnc2)n1 [Imatinib_Mesylate]", "Value": "-3.71%"}
{"Compound": "CCc1c2c(nc3ccc(OC(=O)N4CCC(N5CCCCC5)CC4)cc13)-c1cc3c(c(=O)n1C2)COC(=O)[C@]3(O)CC [Irinotecan]", "Value": "-12.2%"}

## Input Give the measured percent difference in area under dose-response curve of `Cc1cn(-c2cc(NC(=O)c3ccc(C)c(Nc4nccc(-c5cccnc5)n4)c3)cc(C(F)(F)F)c2)cn1` .
## Output -3.16%

## Input Now give it for `Cc1cc(Nc2cc(N3CCN(C)CC3)nc(/C=C/c3ccccc3)n2)n[nH]1` too.
## Output -2.84%

## Input Same question, `C[C@@H](Oc1cc(-n2cnc3ccc(CN4CCN(C)CC4)cc32)sc1C(N)=O)c1ccccc1C(F)(F)F` this time
## Output -20.5%

## Input Another compound to check: `Cc1cc2c(F)c(Oc3ncnn4cc(OC[C@@H](C)O)c(C)c34)ccc2[nH]1`
## Output -2.59%

## Input Same for CC[n+]1c(-c2ccccc2)c2cc(N)ccc2c2ccc(N)cc21 [Ethidium_Bromide]
## Output -18.5%

## Input Thanks! And COc1ccc(COc2cc3oc(=O)c4cc(C(C)O)ccc4c3cc2OC)cc1 (stereo unspecified) ?
## Output -0.0774%

## Input Could you do the same for `Cc1[nH]c(/C=C2\C(=O)Nc3ccc(S(=O)(=O)N(C)c4cccc(Cl)c4)cc32)c(C)c1C(=O)N1CCN(C)CC1` , please?
## Output -9.77%

## Input Follow-up entry: `C=C(c1ccc(C(=O)O)cc1)c1cc2c(cc1C)C(C)(C)CCC2(C)C`
## Output -2.87%

## Input Query `CC(C)(C)c1cnc(CSc2cnc(NC(=O)C3CCNCC3)s2)o1` next
## Output -3.83%

## Input Try this compound next: `c1ccc(Cn2c(-c3ccc(OC[C@H](C4CCNCC4)n4c(-c5ccccc5)nc5ccccc54)cc3)nc3ccccc32)cc1`
## Output -7.63%

## Input Also check `NC(=O)c1[nH]nc([C@@H]2O[C@H](CO)[C@@H](O)[C@H]2O)c1O`
## Output 5.89%

## Input Same lookup for `CC(C)C[C@H](NC(=O)CNC(=O)c1cc(Cl)ccc1Cl)B1OC(=O)C(CC(=O)O)(CC(=O)O)O1` , please.
## Output -1.48%

## Input Now give it for CCc1c2c(nc3ccc(OC(=O)N4CCC(N5CCCCC5)CC4)cc13)-c1cc3c(c(=O)n1C2)COC(=O)[C@]3(O)CC [Irinotecan_HCl_Trihydrate] too.
## Output -10.1%

====

percent difference in area under dose-response curve values by entry
- System: SUM149
- Procedure text: percent difference in area under dose-response curve of relative cell number, RPMI vs HPLM; higher = drug relatively more effective in HPLM than RPMI (negative = less effective in HPLM)
- Condition label: treatment time: 72 h; dose range: 10-point, 1 nM to 20 µM; media compared: RPMI vs HPLM
Number only, in %; omit the unit.

{"Compound": "CN(C)C/C=C/C(=O)Nc1cc2c(Nc3ccc(F)c(Cl)c3)ncnc2cc1O[C@H]1CCOC1 [Afatinib]", "Value": 2.93}
{"Compound": "O=C(NOC[C@H](O)CO)c1ccc(F)c(F)c1Nc1ccc(I)cc1F", "Value": -8.94}
{"Compound": "Cc1ccc(NC(=O)c2cccc(C(C)(C)C#N)c2)cc1Nc1ccc2ncn(C)c(=O)c2c1", "Value": -22.2}

## Input percent difference in area under dose-response curve for `Cc1cccc(-c2[nH]c(C(C)(C)C)nc2-c2ccc3nccnc3c2)n1` ?
## Output -7.49

## Input Quick one: CNC(=O)c1ccccc1Sc1ccc2c(/C=C/c3ccccn3)n[nH]c2c1 [Axitinib]
## Output -0.398

## Input Now try CN1CCN(CCOc2cc(OC3CCOCC3)c3c(Nc4c(Cl)ccc5c4OCO5)ncnc3c2)CC1 [Saracatinib] .
## Output 14.3

## Input What do we get for O=C1c2c(O)ccc(O)c2C(=O)c2c(NCCNCCO)ccc(NCCNCCO)c21 [Mitoxantrone_HCl] ?
## Output -32.7

## Input Again, but for CCOC(=O)[C@@H](N)CCC(=O)N[C@@H](CSCc1ccccc1)C(=O)N[C@@H](C(=O)OCC)c1ccccc1 [Telintra]
## Output 2.03

## Input Can you check COc1cc([C@@H]2c3cc4c(cc3[C@@H](O[C@@H]3O[C@@H]5CO[C@@H](c6cccs6)O[C@H]5[C@H](O)[C@H]3O)[C@H]3COC(=O)[C@H]23)OCO4)cc(OC)c1O [Teniposide] next?
## Output -42.7

## Input Do the same for `C=CCc1cccc(/C=N/NC(=O)CN2CCN(Cc3ccccc3)CC2)c1O` please
## Output -12.9

## Input Also `Nc1ccc(C(=O)Nc2cccc(-c3nc(N4CCOCC4)c4oc5ncccc5c4n3)c2)cn1` ?
## Output 7.67

## Input Moving on to the next compound: Cc1ccc(C(=O)Nc2ccc(CN3CCN(C)CC3)c(C(F)(F)F)c2)cc1C#Cc1cnc2cccnn12 [Ponatinib]
## Output 16.9

====

- Test system: SUM149
- Procedure text: percent difference in area under dose-response curve of relative cell number, RPMI vs HPLM; higher = drug relatively more effective in HPLM than RPMI (negative = less effective in HPLM)
- Condition label: treatment time: 72 h; dose range: 10-point, 1 nM to 20 µM; media compared: RPMI vs HPLM
Measured property: percent difference in area under dose-response curve

{"Molecule": "Cn1cnc([N+](=O)[O-])c1Sc1ncnc2[nH]cnc12", "Tested target": "SUM149", "Value": "-50.6%"}
{"Molecule": "CC(C)C[C@H](NC(=O)[C@H](Cc1ccccc1)NC(=O)c1cnccn1)B(O)O", "Tested target": "SUM149", "Value": "-29.8%"}
{"Molecule": "COc1cc([C@@H]2c3cc4c(cc3[C@@H](O[C@@H]3O[C@@H]5CO[C@@H](C)O[C@H]5[C@H](O)[C@H]3O)[C@H]3COC(=O)[C@H]23)OCO4)cc(OC)c1O [Etoposide]", "Tested target": "SUM149", "Value": "-22.4%"}
{"Molecule": "O=C(c1ccc(OCCN2CCCCC2)cc1)c1c(-c2ccc(O)cc2)sc2cc(O)ccc12", "Tested target": "SUM149", "Value": "2.48%"}
{"Molecule": "COc1cc2/c(=N/c3ccc(Br)cc3F)nc[nH]c2cc1OCC1CCN(C)CC1", "Tested target": "SUM149", "Value": "-3.62%"}

## Input Record lookup: for SUM149, what percent difference in area under dose-response curve belongs to `Cc1ccc(S(=O)(=O)/C=C/C#N)cc1` ?
## Output 0.814%

## Input Now this one: O=C(Nc1cccc(Cl)c1)Nc1ncc(CCNc2ncnc3ccsc23)s1 [SNS314_Mesylate]
## Output -24.4%

## Input Okay, and `Cc1c(C(=O)Nc2ccc(N3C[C@@H](C)O[C@@H](C)C3)nc2)cccc1-c1ccc(OC(F)(F)F)cc1` ?
## Output -7%
